Target: T1, PUF4 RNA-binding domain (Saccharomyces cerevisiae, UniProt P25339 537-888)
T1 sequence: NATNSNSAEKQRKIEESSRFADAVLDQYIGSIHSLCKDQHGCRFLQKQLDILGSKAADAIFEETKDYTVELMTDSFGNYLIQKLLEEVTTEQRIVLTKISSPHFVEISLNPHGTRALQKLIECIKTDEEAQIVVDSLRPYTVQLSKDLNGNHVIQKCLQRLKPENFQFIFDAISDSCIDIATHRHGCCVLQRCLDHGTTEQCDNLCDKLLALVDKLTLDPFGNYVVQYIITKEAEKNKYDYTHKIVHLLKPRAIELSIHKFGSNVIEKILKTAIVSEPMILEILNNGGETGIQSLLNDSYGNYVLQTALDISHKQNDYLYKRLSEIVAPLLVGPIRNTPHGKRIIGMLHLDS
Assay: Mg; RNA-MaP; 20 mM Na-HEPES pH 7.4, 30 mM KOAc, 0.75 mM MgCl2, 0.1% Tween-20, 5% glycerol, 0.1 mg/mL BSA, 2 mM DTT; 25 C; 0.0125-409.6 nM protein
Settings: tags: N-His6-TEV cleaved; C-SNAP kept, Cy3B-labelled; label: tethered on chip by stalled RNA polymerase
Hi! Just check whether Kd is below 9 nM. Below gives 1, equal or above gives 0.

| binder | group |
| --- | --- |
| Id_ii_S4_P5E.3_K5.2_C5.2_[C-2T]_[T-1G]_H5.2_A5.1_F5.1_T5.2_[A12T] (ssRNA) RNA: UUUGACAACUGAUCGUUCUUUCUUGUAUAUUAUUAUUUUCUUUCUCGAUCAGUUGUCUUU | 1 |

Determine whether this binder shows Kd lower than 9 nM (ties excluded): UCUCUUCGACACUAUUACAUCUCUU (ssRNA) [Id_ii_S1_P4E.4_K4.3_C4.2_[T-1G]_H4.3_A4.1_F4.1_T4.2_[G10C]_[T11A]]
0

Hello, is Kd of the following binder strictly smaller than 9 nM? Id_ii_S2_P4E.3_K4.2_C4.2_[C-2T]_H4.2_A4.1_F4.1_T4.2_[G10C]_[T11A] (ssRNA) RNA: UUUGAUUAAUAUGAUAUCGUUCUUUCUUUUAUAUAUUACAUUCUUUCUCGAUAUCAUAUUAAUCUUU
1

Lab note: Kd threshold 9 nM. Does this binder come in strictly under it? Ic_S4_P5E.1_K5.1_C5.1_H5.1_A5.1_[T5C]_[T6C]_[A7G]_F5.1_[T8A]_[T9C]_[A10C]_T5.1 (ssRNA) RNA: UUUGACAACUGAUCGUUCUUUCUUGUACCGACCUUCUUUCUCGAUCAGUUGUCUUU
0

# check: Kd < 9 nM for Id_ii_S2_P3E.3_K3.2_C3.2_H3.2_A3.1_F3.1_T3.2_[A10G] (ssRNA) RNA: UUUGAUUAAUAUGAUAUCGUUCUUUCUCUUAUAUAUAUGUUCUUUCUCGAUAUCAUAUUAAUCUUU
0

Decide: Kd of Ie_S2_P4E.1_K4.1_C4.1_H4.1_A4.1_F4.1_[+8TCTCT]_T4.1 (ssRNA) RNA: UUUGAUUAAUAUGAUAUCGUUCUUUCUUGUAUAUUUCUCUAUUCUUUCUCGAUAUCAUAUUAAUCUUU strictly below 9 nM?
1

Consider the binder Id_ii_S2_P3E.2_K3.1_C3.2_[C-2T]_[T-1C]_H3.1_A3.1_F3.1_T3.2_[T9C]_[A10T] (ssRNA) RNA: UUUGAUUAAUAUGAUAUCGUUCUUUCUUCUGUAUAUACUUUCUUUCUCGAUAUCAUAUUAAUCUUU . Is its Kd strictly less than 9 nM?
1

Is Kd strictly under 9 nM for the entry Ie_S4_P4E.1_K4.1_C4.1_H4.1_[+4CT]_A4.1_F4.1_T4.1 (ssRNA) RNA: UUUGACAACUGAUCGUUCUUUCUUGUACUUAUUAUUCUUUCUCGAUCAGUUGUCUUU ?
1

For this binder, is Kd lower than 9 nM? Id_ii_S2_P3E.2_K3.1_C3.2_[C-2A]_[T-1G]_H3.1_A3.1_F3.1_T3.2_[A10C] (ssRNA) RNA: UUUGAUUAAUAUGAUAUCGUUCUUUCUAGUGUAUAUAUCUUCUUUCUCGAUAUCAUAUUAAUCUUU
0

# check: Kd < 9 nM for UCUCUUUGUAUAACUAUCUCUU (ssRNA) [Ic_S1_P5E.1_K5.1_C5.1_H5.1_A5.1_[T6A]_F5.1_[T8C]_T5.1]
1
